The measurements presented in this section are drawn from patent US20260207615A1.

- system: KRAS G12C and cRAF interaction (Homo sapiens, UniProt P01116, C118S/C51S/C80L/G12C)
- Construct: truncated version comprising amino acids 1-169
- Sequence (P01116 1-169 isoform P01116-2 G12C/C51S/C80L/C118S): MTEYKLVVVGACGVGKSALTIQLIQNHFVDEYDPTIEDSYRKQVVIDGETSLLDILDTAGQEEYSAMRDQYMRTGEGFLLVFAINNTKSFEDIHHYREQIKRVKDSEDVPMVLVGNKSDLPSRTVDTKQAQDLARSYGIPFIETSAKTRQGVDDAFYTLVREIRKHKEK
- procedure details: Inhibition of KRAS G12C and cRAF binding (AlphaScreen)
- applied conditions: KRAS G12C (Cys-light, aa 1-169) preloaded with GMPPNP, cRaf RBD (aa 50-131), 2 hours incubation
pIC50: −log10 of the molar value.
measurement type: pIC50

See these solved cases before continuing.
C=CC(=O)N1[C@@H](C)CN(c2nc(OC[C@@]34CCCN3C[C@H](F)C4)nc3c(F)c(-c4cccc5ccc(F)c(F)c45)ncc23)CC12COC2 = ≤ 6.30
Cc1nccc(/C=C/C(=O)N2CCN(c3nc(OC[C@@]45CCCN4C[C@H](F)C5)nc4c(F)c(-c5ccccc5C(F)F)ncc34)CC23COC3)n1 = ≤ 6.30
C=CC(=O)N1CCN(c2nc(OC[C@@]34CCCN3C[C@H](F)C4)nc3c(F)c(-c4cccc5ccc(F)c(Cl)c45)ncc23)CC12COC2 = 7.00 to 8.00
Cc1cc(/C=C/C(=O)N2CCN(c3nc(OC[C@@]45CCCN4C[C@H](F)C5)nc4c(F)c(-c5cccc(Cl)c5C(F)(F)F)ncc34)CC23COC3)nc(C)n1 = 6.30 to 7.00
O=C(/C=C/CN1CCOCC1)N1CCN(c2nc(OC[C@@]34CCCN3C[C@H](F)C4)nc3c(F)c(-c4cc(O)cc(Cl)c4C4CC4)ncc23)CC12COC2 = > 8.00

Query: What measured pIC50 goes with "O=C(/C=C/CN1C[C@@H]2C[C@H]1CO2)N1CCN(c2nc(OC[C@@]34CCCN3C[C@H](F)C4)nc3c(F)c(-c4cccc(Cl)c4C(F)(F)F)ncc23)CC12COC2" ?
Response: 7.00 to 8.00

----------
- system: KRAS G12C and cRAF interaction (Homo sapiens, UniProt P01116, C118S/C51S/C80L/G12C)
- Construct: truncated version comprising amino acids 1-169
- procedure details: Inhibition of KRAS G12C and cRAF binding (AlphaScreen)
- applied conditions: KRAS G12C (Cys-light, aa 1-169) preloaded with GMPPNP, cRaf RBD (aa 50-131), 2 hours incubation
pIC50: −log10 of the molar value.
Please provide measured pIC50 for the entries that follow.

See these solved cases before continuing.
CN(C/C=C/C(=O)N1CCN(c2nc(OC[C@@]34CCCN3C[C@H](F)C4)nc3c(F)c(-c4cccc5cccc(Cl)c45)ncc23)CC12COC2)CC1COC1 = 7.00 to 8.00
O=C(/C=C/CN1C[C@H]2C[C@@H]1CO2)N1CCN(c2nc(OC[C@@]34CCCN3C[C@H](F)C4)nc3c(F)c(-c4cccc5cccc(Cl)c45)ncc23)CC12COC2 = 7.00 to 8.00

Then this compound:
Query: What measured pIC50 goes with "Cc1nccc(/C=C/C(=O)N2CCN(c3nc(OCC45CCCN4CCC5)nc4c(F)c(-c5cccc6ccc(F)c(F)c56)ncc34)CC23COC3)n1" ?
Response: 6.30 to 7.00

----------
Please provide measured pIC50 for the entries that follow.
- system: KRAS G12C and cRAF interaction (Homo sapiens, UniProt P01116, C118S/C51S/C80L/G12C)
- Construct: truncated version comprising amino acids 1-169
- procedure details: Inhibition of KRAS G12C and cRAF binding (AlphaScreen)
- applied conditions: KRAS G12C (Cys-light, aa 1-169) preloaded with GMPPNP, cRaf RBD (aa 50-131), 2 hours incubation
pIC50: −log10 of the molar value.

C=CC(=O)N1CCN(c2nc(OC[C@@H]3CCCN3C)nc3c(F)c(-c4cccc5cccc(Cl)c45)ncc23)CC12COC2 [Example 1] = 6.30 to 7.00
O=C(/C=C/CN1CC2CCC(C1)O2)N1CCN(c2nc(OC[C@@]34CCCN3C[C@H](F)C4)nc3c(F)c(-c4cccc5ccc(F)c(F)c45)ncc23)CC12COC2 [Example 22] = > 8.00
C=CC(=O)N1[C@H](C)CN(c2nc(OC[C@@]34CCCN3C[C@H](F)C4)nc3c(F)c(-c4cccc5cccc(Cl)c45)ncc23)CC12COC2 [Example 72] = 6.30 to 7.00
O=C(/C=C/CN1[C@@H]2CC[C@H]1COC2)N1CCN(c2nc(OCC34CCCN3CCC4)nc3c(F)c(-c4cccc5cccc(Cl)c45)ncc23)CC12COC2 [Example 36] = > 8.00

The following compounds each have a reported value; give each one's pIC50.
1. C=CC(=O)N1CCN(c2nc(OC[C@@]34CCCN3C[C@H](F)C4)nc3c(F)c(-c4cccc5cccc(Cl)c45)ncc23)CC12CCOC2 (stereo partly drawn) [Example 84]
2. C#Cc1c(F)ccc2cccc(-c3ncc4c(N5CCN(C(=O)/C=C/CN6CC[C@@H](OC)C6)C6(COC6)C5)nc(OC[C@@]56CCCN5C[C@H](F)C6)nc4c3F)c12 [Example 43]

Response:
1. 6.30 to 7.00
2. 7.00 to 8.00

----------
Please provide measured IC50 for the entries that follow.
- system: KRAS G12C and cRAF interaction (Homo sapiens, UniProt P01116, C118S/C51S/C80L/G12C)
- Construct: truncated version comprising amino acids 1-169
- procedure details: Inhibition of KRAS G12C and cRAF binding (AlphaScreen)
- Assay type: biochemical
- applied conditions: KRAS G12C (Cys-light, aa 1-169) preloaded with GMPPNP, cRaf RBD (aa 50-131), 2 hours incubation
- Method: The AlphaScreen technology was used to determine IC50s for compound inhibition of KRAS G12C (present as the Cys-light (C51S, C80L and C118S), truncated version comprising amino acids 1-169) and cRAF interaction. […] IC50S were determined using nonlinear regression fit of [inhibitor] vs. response (4 parameters). […] The AlphaScreen beads were added as above except biotin-AviTag-GST was substituted for the RBD. Samples were read and analyzed as above.

C=CC(=O)N1CCN(c2nc(OC[C@@]34CCCN3C[C@H](F)C4)nc3c(F)c(-c4cccc(Cl)c4C(F)(F)F)ncc23)CC12COC2 = 10 to 100 nM
O=C(/C=C/CN1CC2CC(C1)O2)N1CCN(c2nc(OC[C@@]34CCCN3C[C@H](F)C4)nc3c(F)c(-c4cccc(Cl)c4C(F)(F)F)ncc23)CC12COC2 = 10 to 100 nM

The following compounds each have a reported value; give each one's IC50.
1. O=C(/C=C/CN1[C@@H]2CC[C@H]1COC2)N1CCN(c2nc(OC[C@@]34CCCN3C[C@H](F)C4)nc3c(F)c(-c4cccc5cccc(Cl)c45)ncc23)CC12COC2
2. C=CC(=O)N1CCN(c2nc(OC[C@@]34CCCN3C[C@H](F)C4)nc3c(F)c(-c4cccc5cccc(Cl)c45)ncc23)CC12COC2
3. C=CC(=O)N1CCN(c2nc(OC[C@@]34CCCN3C[C@H](F)C4)nc3c(F)c(-c4cc(O)cc(Cl)c4C4CC4)ncc23)CC12COC2
4. C=CC(=O)N1CCN(c2nc(OC[C@@]34CCCN3C[C@H](F)C4)nc3c(F)c(-c4ccc(F)c5sc(N)nc45)c(C(F)(F)F)cc23)CC12CCOC2 (some centres unmarked)

Response:
["< 10 nM", "10 to 100 nM", "< 10 nM", "10 to 100 nM"]

The following compounds each have a reported value; give each one's IC50.
1. C=CC(=O)N1CCN(c2nc(OC[C@@]34CCCN3C[C@H](F)C4)nc3c(F)c(-c4ccc(F)c5sc(N)nc45)c(Cl)cc23)C[C@@]12CCOC2
2. C#Cc1c(F)ccc2cccc(-c3ncc4c(N5CCN(C(=O)/C=C/[C@H]6CCN6C)C6(COC6)C5)nc(OC[C@@]56CCCN5C[C@H](F)C6)nc4c3F)c12
3. C#Cc1c(F)ccc2cccc(-c3ncc4c(N5CCN(C(=O)/C=C/c6cc(C)nc(C)n6)C6(COC6)C5)nc(OC[C@@]56CCCN5C[C@H](F)C6)nc4c3F)c12

Response:
1: 100 to 500 nM; 2: 10 to 100 nM; 3: 10 to 100 nM

The following compounds each have a reported value; give each one's IC50.
1. C=CC(=O)N1CCN(c2nc(OC[C@@]34CCCN3C[C@H](F)C4)nc3c(F)c(-c4cccc(Cl)c4C4CC4)ncc23)CC12COC2
2. CN1CC[C@@H]1/C=C/C(=O)N1CCN(c2nc(OC[C@@]34CCCN3C[C@H](F)C4)nc3c(F)c(-c4cccc(Cl)c4C(F)(F)F)ncc23)CC12COC2

Response:
["10 to 100 nM", "≥ 500 nM"]

----------
- system: KRAS G12C and cRAF interaction (Homo sapiens, UniProt P01116, C118S/C51S/C80L/G12C)
- Construct: truncated version comprising amino acids 1-169
- procedure details: Inhibition of KRAS G12C and cRAF binding (AlphaScreen)
- applied conditions: KRAS G12C (Cys-light, aa 1-169) preloaded with GMPPNP, cRaf RBD (aa 50-131), 2 hours incubation
- Description: The AlphaScreen technology was used to determine IC50s for compound inhibition of KRAS G12C (present as the Cys-light (C51S, C80L and C118S), truncated version comprising amino acids 1-169) and cRAF interaction. […] IC50S were determined using nonlinear regression fit of [inhibitor] vs. response (4 parameters). […] The AlphaScreen beads were added as above except biotin-AviTag-GST was substituted for the RBD. Samples were read and analyzed as above.
Please provide measured IC50 for the entries that follow.

See these solved cases before continuing.
CN1CC[C@@H]1/C=C/C(=O)N1CCN(c2nc(OC[C@@]34CCCN3C[C@H](F)C4)nc3c(F)c(-c4cccc5ccc(F)c(F)c45)ncc23)CC12COC2 [Example 67] = 10 to 100 nM
Cc1cc(/C=C(\F)C(=O)N2CCN(c3nc(OC[C@@]45CCCN4C[C@H](F)C5)nc4c(F)c(-c5cccc6ccc(F)c(F)c56)ncc34)CC23COC3)nc(C)n1 [Example 59] = < 10 nM

Query: What measured IC50 goes with CO[C@@H]1CCN(C/C=C/C(=O)N2CCN(c3nc(OC[C@@]45CCCN4C[C@H](F)C5)nc4c(F)c(-c5cccc6ccc(F)c(Cl)c56)ncc34)CC23COC3)C1 [Example 8] ?
Response: 10 to 100 nM
